The reported measurements were obtained from patent US20130260436A1.

Target: PP1183 (Pseudomonas putida, UniProt Q88NM4)
Sequence (Q88NM4 entry or part of it): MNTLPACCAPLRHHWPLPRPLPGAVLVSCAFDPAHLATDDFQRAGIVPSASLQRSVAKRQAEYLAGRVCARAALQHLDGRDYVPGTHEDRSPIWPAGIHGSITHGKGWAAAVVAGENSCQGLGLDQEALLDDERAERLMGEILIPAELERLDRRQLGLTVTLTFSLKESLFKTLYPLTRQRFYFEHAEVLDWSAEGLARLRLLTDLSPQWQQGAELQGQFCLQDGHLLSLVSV
Assay: Carrier protein (CoA) competition assay with PP1183
Type: biochemical, P. putida KT2440
Settings: competition with BpsA for limited CoA (250 nM), read-out: IC50 for carrier protein mediated inhibition of BpsA activation
Method: Another aspect of the invention described is a CoA competition assay for PPTase characterization. Assays of this type consist of two phases. […] In the production phase, the substrates required for pigment synthesis by holo-BpsA (L-gln and ATP) are added to reaction vessels and the velocity (A590/s) of the resulting reaction measured. […]
measured-endpoint: pIC50
Conceptually, pIC50 converts a concentration in mol/L into minus its log10.

Measured pIC50, The peptide carrier protein of BpsA (bPCP), purified recombinant His6 tagged (protein) FVAPRTETEKEIAAVWEKALRRENASVQDDFFESGGNSLIAVGLVRELNARLGVSLPLQSVLESPTIEKLARRLE : 6.52
